Assay Name: self-splicing fitness, log relative to wild type (ln ratio); higher = more splicing; Tetrahymena group I intron in knt gene, E. coli kanamycin selection, DiMSum; sequences stand for … in CUCUCU…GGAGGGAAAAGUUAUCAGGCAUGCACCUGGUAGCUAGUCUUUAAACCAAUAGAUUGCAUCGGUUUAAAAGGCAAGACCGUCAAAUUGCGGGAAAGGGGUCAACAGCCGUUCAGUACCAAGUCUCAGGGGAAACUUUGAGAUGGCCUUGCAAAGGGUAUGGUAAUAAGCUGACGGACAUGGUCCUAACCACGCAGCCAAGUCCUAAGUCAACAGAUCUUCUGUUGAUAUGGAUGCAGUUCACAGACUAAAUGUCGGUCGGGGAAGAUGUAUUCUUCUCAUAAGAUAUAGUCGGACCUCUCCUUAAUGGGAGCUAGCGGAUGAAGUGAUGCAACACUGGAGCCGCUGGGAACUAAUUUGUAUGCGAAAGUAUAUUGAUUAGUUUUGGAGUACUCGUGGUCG;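 note: selection with 25 µg/mL kanamycin versus none on LB agar overnight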
Condition Notes: 30 °C
Criterion: self-splicing fitness (ln) meeting or surpassing -3. Met: Satisfied. Not met: Not satisfied.

Q. Please indicate if the recorded self-splicing fitness (ln) for GGGCAGCAAUAUUACGUGAA meets or exceeds -3.
A. Satisfied
